Origin of values: PubChem BioAssay (NCI)

Recorded TGI for the following compounds
- Test system: SF-295 CNS
- Assay procedure: NCI tumour cell line growth inhibition, 48 h

| Compound | TGI |
| --- | --- |
| C=CCC1(Sc2ccccn2)Sc2ccc3ccccc3c2-c2c(ccc3ccccc23)S1 | > 100 µM |
| O=c1c2ccccc2c(/C=N\NC2=NCCN2)c2oc3ccccc3n12 | 27.8 µM |
| COc1ccccc1CC(C)N (stereo not drawn) | > 100 µM |
| CN(Cc1cn(O)c2nc(=N)nc(N)c-2n1)c1ccc(C(=O)NC23CC4CC(CC(C4)C2)C3)cc1 | > 100 µM |
| COc1cc(/C=N/c2nc3cc4sc(/N=C/c5cc(OC)c(OC)c(OC)c5)nc4cc3s2)cc(OC)c1OC | > 100 µM |
| Cn1cc(C2=C(c3cn(-c4ccccc4)c4ccccc34)C(=O)NC2=O)c2ccccc21 | > 25 µM |
| CC(=O)NC(Cc1ccccc1)NC(=O)O (stereo not drawn) | > 100 µM |
| CCOC(=O)CCC(C(=O)OCC)n1nc2ccc(Nc3c(C)[n+]([O-])c4cc(F)c(OCC)cc4[n+]3[O-])cc2n1 (stereo not drawn) | > 100 µM |
| CC(NCc1c(O)ccc2ccc(=O)oc12)C(=O)O (stereo not drawn) | > 100 µM |
| O=c1cc(NNCc2ccccc2)[nH]c(=O)[nH]1 | > 100 µM |
| CCCCN1C(=O)c2c(Br)sc(Br)c2C1=O | > 100 µM |
| CN(C)C=Nc1c2ccccc2nc2ccccc12 | 21.6 µM |
| CC(=O)OCC1OC(N2C(c3ccccc3)=CC(c3ccco3)C(C#N)=C2S)C(OC(C)=O)C(OC(C)=O)C1OC(C)=O (stereo not drawn) | > 70.3 µM |
| O=C(O)CC(NC(=O)/C(=C/c1ccccc1)NC(=O)c1ccccc1)C(=O)O (stereo not drawn) | > 100 µM |
| O=C1/C(=C/c2ccc(O)cc2)CCc2ccc([N+](=O)[O-])cc21 | > 100 µM |
| CC(C)(C)OC(=O)N1C(OP(=O)(Oc2ccccc2)Oc2ccccc2)=CSc2ccccc21 | > 100 µM |
| O=C(NCCCNCCN1C(=O)c2cccc3cc([N+](=O)[O-])cc(c23)C1=O)c1cc(-c2ccccc2)nc2ccccc12 | 14.8 µM |
| N#CC1=C2SCCN2C(=O)C(C#N)C12CCCCC2 (stereo not drawn) | > 100 µM |
| CCOC(=O)C1(C#N)C(=O)c2cc[n+](CC[n+]3ccc4c(c3)C(=O)C(C#N)(C(=O)OCC)C4=O)cc2C1=O (stereo not drawn) | > 100 µM |
| COC(=O)c1ccc(/C=C(\c2ccc([N+](=O)[O-])o2)S(=O)(=O)c2ccc(NC(C)=O)cc2)o1 | 32.7 µM |
| Cc1cc(C)nc(NS(=O)(=O)c2ccc(Nc3c4ccccc4nc4c(C(=O)NC(CO)(CO)CO)cccc34)cc2)n1 | > 100 µM |
| COc1ccc(/C=C2\COc3ccc(O)c(O)c3C2=O)c(OC)c1OC | > 100 µM |
| CCOc1cn(C2OC(CO)C(O)C2O)c(=O)[nH]c1=O (stereo not drawn) | > 100 µM |
| c1cc2nnsc2s1 | > 100 µM |
| C[Si](C)(C)c1ccc(-c2c3ccc(-c4cc(Br)cc(Br)c4)nc3nc3nc(-c4cc(Br)cc(Br)c4)ccc23)cc1 | > 100 µM |
| O=C(NC(Cc1ccc(Br)cc1)C(=O)O)c1ccc(I)cc1 (stereo not drawn) | > 100 µM |
| Nc1ccc(O)c2c1C(=O)c1c(N)ccc(O)c1C2=O | > 100 µM |
| CC1=NN(C(=O)Nc2ccc(Cl)cc2)C(=O)C2CCC(=O)N12 (stereo not drawn) | > 100 µM |

* * *

Form field: GI50 (one value per entry).
- System: RXF 393 renal
- Assay procedure: NCI tumour cell line growth inhibition, 48 h

| Input smiles | Test target | GI50 |
| --- | --- | --- |
| CCN(CC)CC[n+]1ccc2c(C)c3[nH]c4ccc(O)cc4c3c(C)c2c1 | RXF 393 renal | 13.9 µM |
| Cn1cc(C2=C(c3cn(-c4ccccc4)c4ccccc34)C(=O)NC2=O)c2ccccc21 | RXF 393 renal | 10.2 µM |
| COCCOC1=CC(=O)c2c(O)ccc(O)c2C1=O | RXF 393 renal | 1.5 µM |

* * *

- Test system: PC-3 prostate
- Assay procedure: NCI tumour cell line growth inhibition, 48 h
Here, each record is paired with measured TGI data.
Readout: TGI

| Compound | Assay result |
| --- | --- |
| Cc1ccc(OCC2OC(n3cnc4nc(Nc5ccc(Cl)c(Cl)c5)nc(Cl)c43)CC2Oc2ccc(C)cc2)cc1 (stereo unspecified) | > 100 µM |
| CN(C)CCCSc1ccccc1NC1=C(Cl)C(=O)C(Nc2ccccc2SCCCN(C)C)=C(Cl)C1=O | 3.84 µM |
| COc1ccc2c(=O)cc(-c3ccc(OC)c(OC)c3OC)oc2c1 | > 100 µM |
| O=C(NCCC1CN(C(=O)OCc2ccccc2)c2ccccc21)OCc1ccccc1 (stereo unspecified) | > 100 µM |
| O=c1cc(NNCc2ccccc2)[nH]c(=O)[nH]1 | > 100 µM |
| CCOC(=O)C1(C#N)C(=O)c2cc[n+](CC[n+]3ccc4c(c3)C(=O)C(C#N)(C(=O)OCC)C4=O)cc2C1=O (stereo unspecified) | > 100 µM |

* * *

- Tested on: 786-0 renal
- Assay procedure: NCI tumour cell line growth inhibition, 48 h
Catalogue of TGI values
Readout: TGI

| Compound | Test target | Assay result |
| --- | --- | --- |
| CCCCNS(=O)(=O)c1n[nH]c(=O)[nH]c1=O | 786-0 renal | > 100 µM |
| CSc1nc2nn(Cc3ccccc3)cc2c(=O)[nH]1 | 786-0 renal | > 100 µM |
| O=S1(=O)c2ccccc2C(Nc2ccccc2)N1c1ccccc1 (stereo unspecified) | 786-0 renal | > 100 µM |
| COc1ccc(CCN(CC(=O)N(CC(N)=O)C2CCC[C@@H]2OCc2ccccc2)C(=O)CN(C(=O)CN(CCc2ccc(Cl)cc2)C(=O)CN(C(=O)CN(C)Cc2ccccc2F)[C@H](C)C2CCCCC2)[C@H](C)C2CCCCC2)cc1OC (stereo partly specified) | 786-0 renal | > 50 µM |
| CON(C)C(=O)[C@H]1C[C@@]1(C)CO | 786-0 renal | > 100 µM |
| CCOC(=O)C1=C(C)NC(=O)NC1CN1C(=O)c2ccccc2C1=O (stereo unspecified) | 786-0 renal | > 100 µM |
| COc1cc2oc(-c3ccccc3)cc(=O)c2c(O)c1C | 786-0 renal | > 100 µM |
| Cc1cnc2oc3ccc(O)cc3c2c1-c1ccccc1 | 786-0 renal | > 100 µM |
| Nc1ccc(O)c2c1C(=O)c1c(N)ccc(O)c1C2=O | 786-0 renal | > 100 µM |
| CCCCCCCCCCCCCCCCCCNc1ccn(C2OC(CO)C(OP(=O)(O)OCC(O)COP(=O)(O)OCC3OC(n4cc(F)c(NCCCCCCCCCCCCCCCCCC)nc4=O)CC3O)C2O)c(=O)n1 (stereo unspecified) | 786-0 renal | > 50 µM |
| CC(=O)Nc1cccc(N2C(=O)/C(=C\c3cccc(Oc4ccccc4)c3)S(=O)(=O)C2c2ccccc2)c1 (stereo unspecified) | 786-0 renal | > 100 µM |

* * *

- Test system: HS 578T breast
- Assay procedure: NCI tumour cell line growth inhibition, 48 h

| Compound | TGI |
| --- | --- |
| OC[C@H]1NC[C@@H](O)[C@@H](O)[C@H]1O | > 100 µM |
| CON(C)C(=O)[C@H]1C[C@@]1(C)CO | > 100 µM |
| CC1(CO)COS(=O)OC1 (stereo unspecified) | > 100 µM |
| CCOC(=O)C1=C(C)NC(=O)NC1CN1C(=O)c2ccccc2C1=O (stereo unspecified) | > 100 µM |
| COc1cc(N2C(=O)[C@H](c3ccccc3)C2c2ccc(SC)cc2)cc(OC)c1OC (stereo partly specified) | > 100 µM |
| Cn1c2c(c3ccccc31)CCN(CCCCN1CCN(c3ccccc3)CC1)C2=O | 50.6 µM |
| Cc1cc(=O)oc2c(CNC(CO)C(=O)O)c(O)ccc12 (stereo unspecified) | > 100 µM |
| CCc1cnn2c(NCc3ccc[n+]([O-])c3)cc(N3CCCC[C@H]3CCO)nc12 | 0.00805 µM |
| COc1cc([N+](=O)[O-])c(OC)cc1-c1nc2sc(C)cn2c1/C(N)=N/C(=N)N | 89.2 µM |
| O/N=C(/CC(O)(C(F)(F)F)C(F)(F)F)c1ccccc1 | > 10 µM |
| COC(=O)c1ccccc1CC1Cc2cc3c(cc2C1=O)CCC3 (stereo unspecified) | 86.6 µM |
| CCC/C(Cl)=N/OC(=O)Nc1cc(C(F)(F)F)ccc1OC | > 72.2 µM |
| CCOC(=O)C(NC(C)=O)(Nc1ccc(S(N)(=O)=O)cc1)C(F)(F)F (stereo unspecified) | > 100 µM |
| C/C=C/C=C\C=C/C(O)C(C)C(CCC(C)C1OC(=O)C=CC1C)OP(=O)(O)O (stereo unspecified) | 4.28 µM |
| CN(CC(=O)O)Cc1c(O)c(Cl)cc(Cl)c1Cl | > 100 µM |
| CCN1c2cc(Br)cc3[nH]c(=O)n(c23)CCC1C (stereo unspecified) | 28.9 µM |
| CC(=O)OCC1OC(N2C(c3ccccc3)=CC(c3ccco3)C(C#N)=C2S)C(OC(C)=O)C(OC(C)=O)C1OC(C)=O (stereo unspecified) | 7.61 µM |
| COC1=C(C)C(=O)c2c(c(CCCl)c3n2CCC3OC(C)=O)C1=O (stereo unspecified) | 3.62 µM |
| CC[C@]12C=CCN3CCC4(c5cc([C@@]6(C(=O)OC)CC7CN(CCc8c6[nH]c6ccccc86)C[C@@H]6CCCC[C@H]76)c(OC)cc5N(C)C4[C@](O)(C(=O)OC)C1OC(C)=O)[C@@H]32 (stereo partly specified) | < 0.01 µM |
| O=C1CC(c2ccccc2)Cc2nc3ccc(Br)cc3cc21 (stereo unspecified) | > 94.5 µM |
| Oc1[nH]c(=S)[nH]c1/C=C1/C(c2ccccc2)=Nc2ccccc21 | 42.4 µM |
| C=C(C)[C@@H]1CCC2=C[C@H](C/C(C)=C\C3=CC(C)=C(O3)[C@H]1O)OC2=O | > 100 µM |
| CC1=C(C)C(=O)O[C@@H]([C@](C)(O)[C@]2(O)CC[C@@]3(O)[C@@H]4C[C@H](O)[C@]5(O)[C@@H](O)C=CC(=O)[C@]5(C)[C@H]4CC[C@]23C)C1 | > 100 µM |
| CCCCCCCCCCCCCCCCCCNc1ccn(C2OC(CO)C(OP(=O)(O)OCC(O)COP(=O)(O)OCC3OC(n4cc(F)c(NCCCCCCCCCCCCCCCCCC)nc4=O)CC3O)C2O)c(=O)n1 (stereo unspecified) | > 50 µM |
| CC(O)CN1c2ccccc2Sc2ccccc21 (stereo unspecified) | > 100 µM |
| CN(Cc1cn(O)c2nc(=N)nc(N)c-2n1)c1ccc(C(=O)NC23CC4CC(CC(C4)C2)C3)cc1 | 40.4 µM |
